Entries and their IC50
tested on: Ba/F3-TEL-EGFR-T790M-L858R-C797S cells; test: Inhibitory activity on proliferation of Ba/F3-TEL-EGFR-T790M-L858R-C797S cells (CellTiter-Glo, 72 h); format: cell-based
measurementLabel: IC50 (nM)

[[record]]
compound = "COc1cc(N2CCC(CN3CCN(c4ccc5c(c4)C(=O)N(C4CCC(=O)NC4=O)C5=O)CC3)CC2)c(-c2cnn(C)c2)cc1Nc1ncc(Cl)c(Nc2ccc(C3CC3)cc2P(C)(C)=O)n1 (centres unmarked) [Compound 107]"
valueobserved = 15.6

[[record]]
compound = "COc1cc(N2CCC(CN3CCN(c4ccc5c(c4)C(=O)N(C4CCC(=O)NC4=O)C5=O)CC3)CC2)c(-c2cnn(C)c2)cc1Nc1ncc(Br)c(Nc2ccc(C3CC3)cc2P(C)(C)=O)n1 (centres unmarked) [Compound 106]"
valueobserved = 15.6

